B1: library; a variant is named by its letters at N, in order (parent)
chain: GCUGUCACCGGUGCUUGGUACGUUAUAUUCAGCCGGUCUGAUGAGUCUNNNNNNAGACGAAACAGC

# Variants of: B1
# PROTOCOL DETAILS: normalized RNA/DNA level with ligand (relative to sTRSVctl = 100) (log10 (% of sTRSVctl)); HEK293T overexpressing SLC46A1; ligand concentration (+) RNA-Seq: 6 mM; higher = less ribozyme self-cleavage, higher mRNA level
# TEST CONTEXT: with (6R,S)-folinic acid; ligand present: yes
Reported normalized RNA/DNA level with ligand (log10) values are given for each entry in this list.
// return a plain number; no unit text

| MUTANT ID | VALUE |
| --- | --- |
| GGAGCA | 2.02 |
| AGCUUG | 2.03 |
| AUUCGC | 2.06 |

What value of measured normalized RNA/DNA level with ligand (log10) is listed for "UAUACU" ?
1.99

Looking for the measured normalized RNA/DNA level with ligand (log10) of "UUGGAC" , can you help?
1.98

# input variant: "CACCCC" ; wanted: its normalized RNA/DNA level with ligand (log10)
2.01

# normalized RNA/DNA level with ligand (log10) lookup, item "GGACUU"
1.98

# query: normalized RNA/DNA level with ligand (log10) of entry "CUUGUG"
2.02

Requested field: normalized RNA/DNA level with ligand (log10). Item: "GAAAGC"
2.01

Requested read-out: normalized RNA/DNA level with ligand (log10). Entry: "AGCGAA"
2.01

Would you kindly share the measured normalized RNA/DNA level with ligand (log10) for "CACAAC" ?
1.99

Give its normalized RNA/DNA level with ligand (log10) value. Item: "CUUAGG"
2.05

Need normalized RNA/DNA level with ligand (log10) of "CCUGUG" , thanks.
2.03

Suppose we examine the variant "AUGUGU" ; what normalized RNA/DNA level with ligand (log10) value has been reported?
1.97
